Assay: Caspase-3/7 induction in HepG2 cells by small molecules, qHTS cell viability counter screen (AID 1346981); further: nearly all actives have a fitted effect of over 30% in size
Conditions: CellTiter-Fluor fluorescence, 17 h; series mostly up to 92.4 µM
Results filed as inconclusive are left out. Active and inactive are the calls of the source. The call rests on the fitted dose curve; in most records, active means well fitted cell-killing curve with a large enough effect in the repeat runs; inconclusive means weak or mixed curves, or effect the other way; inactive means flat fitted curve, though single readings scatter.
Pick one: yes = active, no = inactive

Worked examples, 3 compounds total:
INSERT INTO assay_data (compound, cat) VALUES
  ('COc1cc(S(=O)(=O)O)c(C)cc1N=Nc1c(O)ccc2cc(S(=O)(=O)O)ccc12', 'yes'),
  ('CCCCCCOC(=O)C(C)CC (stereo not given)', 'no'),
  ('O=C(O)Cc1ccc2c(c1)C(=O)c1ccccc1CO2', 'no');

## Task Identify the outcome logged in this assay for the compound shown: CCCCCCC1CCCC(=O)O1 (stereo not given)
## Result no

## Task Identify the outcome logged in this assay for the compound shown: C[Si](Cl)(c1ccccc1)c1ccccc1
## Result no
